Readings of pIC50 for the listed molecules
assay: Inhibition of TNFalpha-induced NF-kB (unknown origin) activation expressed in human NCI-H460 cells after 7 hrs by luciferase reporter gene assay; format: cell-based; conditions: NCI-H460, 7 h
pIC50: −log10 of the molar value.

{"columns": ["structure_as_smiles", "pIC50"],
 "data": [
  ["CC(=O)O[C@H]1CC[C@]2(C)[C@H]3CC=C4[C@@H]5[C@@H](C)[C@H](C)CC[C@]5(C(=O)Nc5ccc(C)c(C)c5)CC[C@@]4(C)[C@]3(C)CC[C@H]2C1(C)C", 5.32],
  ["Cc1ccc(NC(=O)[C@]23CC[C@@H](C)[C@H](C)[C@H]2C2=CC[C@@H]4[C@@]5(C)CCC(=O)C(C)(C)[C@@H]5CC[C@@]4(C)[C@]2(C)CC3)cc1C", 4.82],
  ["C[C@H]1[C@H](C)CC[C@]2(C(=O)Nc3ccccc3)CC[C@]3(C)C(=CC[C@@H]4[C@@]5(C)CCC(=O)C(C)(C)[C@@H]5CC[C@]43C)[C@H]12", 5.15]
]}

----------
system: NCI-H460; test: Cytotoxicity against human NCI-H460 cells harboring pNF-kB-Luc assessed as reduction in cell viability after 7 hrs by MTT assay relative to control; design: concentration or dose not given beside the values; settings: nci-h460, 7 h
parameter_measured: Activity

{"columns": ["structure_as_smiles", "measured"],
 "data": [
  ["CC(=O)O[C@H]1CC[C@]2(C)[C@H]3CC=C4[C@@H]5[C@@H](C)[C@H](C)CC[C@]5(C(=O)Nc5ccc(C)cc5)CC[C@@]4(C)[C@]3(C)CC[C@H]2C1(C)C", "< 5%"],
  ["COc1ccc(NC(=O)[C@]23CC[C@@H](C)[C@H](C)[C@H]2C2=CC[C@@H]4[C@@]5(C)CCC(=O)C(C)(C)[C@@H]5CC[C@@]4(C)[C@]2(C)CC3)cc1", "< 5%"],
  ["COc1cc(NC(=O)[C@]23CC[C@@H](C)[C@H](C)[C@H]2C2=CC[C@@H]4[C@@]5(C)CCC(=O)C(C)(C)[C@@H]5CC[C@@]4(C)[C@]2(C)CC3)cc(OC)c1OC", "< 5%"]
]}

----------
assay: Inhibition of TNFalpha-induced NF-kB (unknown origin) activation expressed in human NCI-H460 cells after 7 hrs by luciferase reporter gene assay; type: cell-based; conditions: NCI-H460, 7 h
pIC50: −log10 of the molar value.
Binary classification by pIC50, with 5 as an inclusive lower bound for Condition met; all other cases are Condition not met.

{"columns": ["structure_as_smiles", "category"],
 "data": [
  ["CC(=O)O[C@H]1CC[C@]2(C)[C@H]3CC=C4[C@@H]5[C@@H](C)[C@H](C)CC[C@]5(C(=O)N5CCN(C)CC5)CC[C@@]4(C)[C@]3(C)CC[C@H]2C1(C)C", "Condition met"],
  ["CC(=O)O[C@H]1CC[C@]2(C)[C@H]3CC=C4[C@@H]5[C@@H](C)[C@H](C)CC[C@]5(C(=O)Nc5ccc(C)cc5)CC[C@@]4(C)[C@]3(C)CC[C@H]2C1(C)C", "Condition met"],
  ["COc1cc(NC(=O)COC(=O)[C@]23CC[C@@H](C)[C@H](C)[C@H]2C2=CC[C@@H]4[C@@]5(C)CCC(=O)C(C)(C)[C@@H]5CC[C@@]4(C)[C@]2(C)CC3)cc(OC)c1OC", "Condition not met"],
  ["COc1cc(NC(=O)[C@]23CC[C@@H](C)[C@H](C)[C@H]2C2=CC[C@@H]4[C@@]5(C)CCC(=O)C(C)(C)[C@@H]5CC[C@@]4(C)[C@]2(C)CC3)cc(OC)c1OC", "Condition not met"],
  ["COc1cc(NC(=O)[C@]23CC[C@@H](C)[C@H](C)[C@H]2C2=CC[C@@H]4[C@@]5(C)CC[C@H](OC(C)=O)C(C)(C)[C@@H]5CC[C@@]4(C)[C@]2(C)CC3)cc(OC)c1OC", "Condition not met"],
  ["C[C@H]1[C@H](C)CC[C@]2(C(=O)NCCN(C)C)CC[C@]3(C)C(=CC[C@@H]4[C@@]5(C)CCC(=O)C(C)(C)[C@@H]5CC[C@]43C)[C@H]12", "Condition met"],
  ["Cc1ccc(NC(=O)[C@]23CC[C@@H](C)[C@H](C)[C@H]2C2=CC[C@@H]4[C@@]5(C)CCC(=O)C(C)(C)[C@@H]5CC[C@@]4(C)[C@]2(C)CC3)cc1", "Condition met"],
  ["CC(=O)O[C@H]1CC[C@]2(C)[C@H]3CC=C4[C@@H]5[C@@H](C)[C@H](C)CC[C@]5(C(=O)NCCN(C)C)CC[C@@]4(C)[C@]3(C)CC[C@H]2C1(C)C", "Condition met"],
  ["COc1ccc(NC(=O)[C@]23CC[C@@H](C)[C@H](C)[C@H]2C2=CC[C@@H]4[C@@]5(C)CCC(=O)C(C)(C)[C@@H]5CC[C@@]4(C)[C@]2(C)CC3)cc1OC", "Condition not met"],
  ["COc1ccc(NC(=O)COC(=O)[C@]23CC[C@@H](C)[C@H](C)[C@H]2C2=CC[C@@H]4[C@@]5(C)CCC(=O)C(C)(C)[C@@H]5CC[C@@]4(C)[C@]2(C)CC3)cc1", "Condition not met"],
  ["C[C@H]1[C@H](C)CC[C@]2(C(=O)O)CC[C@]3(C)C(=CC[C@@H]4[C@@]5(C)CC[C@H](O)C(C)(C)[C@@H]5CC[C@]43C)[C@H]12", "Condition not met"],
  ["COc1ccc(NC(=O)COC(=O)[C@]23CC[C@@H](C)[C@H](C)[C@H]2C2=CC[C@@H]4[C@@]5(C)CCC(=O)C(C)(C)[C@@H]5CC[C@@]4(C)[C@]2(C)CC3)cc1OC", "Condition not met"],
  ["C[C@H]1[C@H](C)CC[C@]2(C(=O)N3CCN(C)CC3)CC[C@]3(C)C(=CC[C@@H]4[C@@]5(C)CCC(=O)C(C)(C)[C@@H]5CC[C@]43C)[C@H]12", "Condition not met"],
  ["COc1ccc(NC(=O)[C@]23CC[C@@H](C)[C@H](C)[C@H]2C2=CC[C@@H]4[C@@]5(C)CCC(=O)C(C)(C)[C@@H]5CC[C@@]4(C)[C@]2(C)CC3)cc1", "Condition not met"],
  ["Cc1ccccc1NC(=O)COC(=O)[C@]12CC[C@@H](C)[C@H](C)[C@H]1C1=CC[C@@H]3[C@@]4(C)CCC(=O)C(C)(C)[C@@H]4CC[C@@]3(C)[C@]1(C)CC2", "Condition not met"],
  ["CC(=O)O[C@H]1CC[C@]2(C)[C@H]3CC=C4[C@@H]5[C@@H](C)[C@H](C)CC[C@]5(C(=O)Nc5ccccc5)CC[C@@]4(C)[C@]3(C)CC[C@H]2C1(C)C", "Condition met"],
  ["COc1ccc(NC(=O)[C@]23CC[C@@H](C)[C@H](C)[C@H]2C2=CC[C@@H]4[C@@]5(C)CC[C@H](OC(C)=O)C(C)(C)[C@@H]5CC[C@@]4(C)[C@]2(C)CC3)cc1", "Condition met"]
]}

----------
# maps each entry to its Ratio IC50
experiment: Resistant factor, ratio of IC50 for human NCI-H460/DOX cells to IC50 for human NCI-H460 cells; format: functional
parameter_measured: Ratio IC50

{"columns": ["structure_as_smiles", "parameter_measured", "measured"],
 "data": [
  ["Cc1ccc(NC(=O)COC(=O)[C@]23CC[C@@H](C)[C@H](C)[C@H]2C2=CC[C@@H]4[C@@]5(C)CCC(=O)C(C)(C)[C@@H]5CC[C@@]4(C)[C@]2(C)CC3)cc1", "Ratio IC50", 2.18],
  ["COc1ccc(NC(=O)[C@]23CC[C@@H](C)[C@H](C)[C@H]2C2=CC[C@@H]4[C@@]5(C)CC[C@H](OC(C)=O)C(C)(C)[C@@H]5CC[C@@]4(C)[C@]2(C)CC3)cc1", "Ratio IC50", 2.12],
  ["Cc1ccc(NC(=O)[C@]23CC[C@@H](C)[C@H](C)[C@H]2C2=CC[C@@H]4[C@@]5(C)CCC(=O)C(C)(C)[C@@H]5CC[C@@]4(C)[C@]2(C)CC3)cc1", "Ratio IC50", 1.76],
  ["C[C@H]1[C@H](C)CC[C@]2(C(=O)NCCN(C)C)CC[C@]3(C)C(=CC[C@@H]4[C@@]5(C)CCC(=O)C(C)(C)[C@@H]5CC[C@]43C)[C@H]12", "Ratio IC50", 1.56],
  ["CC(=O)O[C@H]1CC[C@]2(C)[C@H]3CC=C4[C@@H]5[C@@H](C)[C@H](C)CC[C@]5(C(=O)NCCN(C)C)CC[C@@]4(C)[C@]3(C)CC[C@H]2C1(C)C", "Ratio IC50", 1.68],
  ["CC(=O)O[C@H]1CC[C@]2(C)[C@H]3CC=C4[C@@H]5[C@@H](C)[C@H](C)CC[C@]5(C(=O)Nc5ccccc5)CC[C@@]4(C)[C@]3(C)CC[C@H]2C1(C)C", "Ratio IC50", 1.52],
  ["C[C@H]1[C@H](C)CC[C@]2(C(=O)OCC(=O)Nc3ccccc3)CC[C@]3(C)C(=CC[C@@H]4[C@@]5(C)CCC(=O)C(C)(C)[C@@H]5CC[C@]43C)[C@H]12", "Ratio IC50", 1.94],
  ["CC(=O)O[C@H]1CC[C@]2(C)[C@H]3CC=C4[C@@H]5[C@@H](C)[C@H](C)CC[C@]5(C(=O)N5CCN(C)CC5)CC[C@@]4(C)[C@]3(C)CC[C@H]2C1(C)C", "Ratio IC50", 2.35],
  ["CC(=O)O[C@H]1CC[C@]2(C)[C@H]3CC=C4[C@@H]5[C@@H](C)[C@H](C)CC[C@]5(C(=O)Nc5ccc(C)cc5)CC[C@@]4(C)[C@]3(C)CC[C@H]2C1(C)C", "Ratio IC50", 1.4],
  ["C[C@H]1[C@H](C)CC[C@]2(C(=O)Nc3ccccc3)CC[C@]3(C)C(=CC[C@@H]4[C@@]5(C)CCC(=O)C(C)(C)[C@@H]5CC[C@]43C)[C@H]12", "Ratio IC50", 1.99],
  ["CC(=O)O[C@H]1CC[C@]2(C)[C@H]3CC=C4[C@@H]5[C@@H](C)[C@H](C)CC[C@]5(C(=O)Nc5ccc(C)c(C)c5)CC[C@@]4(C)[C@]3(C)CC[C@H]2C1(C)C", "Ratio IC50", 1.81]
]}
